# Substrate: T1, SSB (UniProt P05455)
# T1 sequence (looked up): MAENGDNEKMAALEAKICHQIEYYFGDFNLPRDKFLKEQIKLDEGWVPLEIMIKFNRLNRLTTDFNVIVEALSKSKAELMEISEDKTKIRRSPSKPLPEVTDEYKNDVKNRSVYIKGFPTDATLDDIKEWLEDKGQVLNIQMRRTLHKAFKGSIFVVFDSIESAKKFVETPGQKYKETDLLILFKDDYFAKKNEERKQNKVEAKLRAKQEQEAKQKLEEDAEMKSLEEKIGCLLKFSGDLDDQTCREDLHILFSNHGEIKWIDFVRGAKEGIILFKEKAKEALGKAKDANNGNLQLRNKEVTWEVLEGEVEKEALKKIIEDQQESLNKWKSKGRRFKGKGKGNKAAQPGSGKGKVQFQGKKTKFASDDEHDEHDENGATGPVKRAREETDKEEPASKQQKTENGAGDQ
# ASSAY_REMARKS: AtheNA, Ab 6.25 ug/ml
PROPERTY_MEASURED: Athena reading (relative luminescence units)

# BINDER, MEAS_VALUE
rows = [
    ("CH239_4A/293i (antibody, from a related filing, V domains shown) VH: QVQLVQSGAEVRKPGASVTVSCKASGYTFNNFYVHWVRQAPGQGLECMGWIDPSVGRINYAQKFQGRVTMTRDRSTSTVYMGLSSLRSEDTAIYYCVRDVGTEGSLLHFDHWGQGTLVIVSA VL: EIVLTQSPATLSVSPGERATLSCRATQSVRSNVAWYQQKPGQAPRLLIYSASTRATGIPARFSGSGSGTEFTLTIASMQSEDFAVYYCLQYDDWWTFGQGTKVEIK", 5),
    ("CH241 (antibody, from a related filing, V domains shown) VH: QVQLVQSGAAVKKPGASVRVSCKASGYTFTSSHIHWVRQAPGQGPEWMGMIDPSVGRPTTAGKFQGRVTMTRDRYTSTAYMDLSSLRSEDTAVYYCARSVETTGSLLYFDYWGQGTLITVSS VL: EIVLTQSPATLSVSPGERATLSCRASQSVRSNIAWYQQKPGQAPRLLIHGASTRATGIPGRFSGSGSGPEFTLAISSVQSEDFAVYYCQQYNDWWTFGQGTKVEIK", 4),
    ("CH240_4A/293i (antibody, from a related filing, V domains shown) VH: QVQLVQSGTEVRKPGASVTISCKASGYTFNNFYVHWVRQAPGQGLECMGWIDPSVGRISYGQKFQGRVTMTRDRSTSTVYMGLSSLRSEDTAMYYCVRDVGTEGSLLHFDHWGQGTLVIVSA VL: EIVLTQSPATLSVSPGERATLSCRATQSVRSNLAWYQQKRGQAPRLLIYSASTRATGIPARFSGSGSGTEFTLTISSVQSEDFAVYYCLQYNNWWTFGQGTKVEIK", 5),
    ("CH236_4A/293i (antibody, from a related filing, V domains shown) VH: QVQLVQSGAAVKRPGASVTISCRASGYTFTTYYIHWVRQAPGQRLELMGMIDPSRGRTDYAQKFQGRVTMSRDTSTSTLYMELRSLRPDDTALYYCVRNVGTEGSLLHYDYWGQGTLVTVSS VL: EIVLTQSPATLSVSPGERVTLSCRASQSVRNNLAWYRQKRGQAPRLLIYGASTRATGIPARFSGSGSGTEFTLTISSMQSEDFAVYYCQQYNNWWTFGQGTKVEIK", 15),
]

meta.source: patent US10344077
